tested on: A549; test: Cytotoxicity against human A549 cells assessed as inhibition of cell growth incubated for 48 hrs by MTT assay; assay type: functional, cell-based; settings: A549, 48 h
Where a name gives a salt, the structure may show the parent alone.
metric name: pIC50
Give bare numbers, as −log10 of the molar value.

These recorded examples may help you get a feel for the data.
compound | metric name | measured
COc1cccc2c1C(=O)c1c(O)c3c(c(O)c1C2=O)C[C@@](O)(C(=O)CO)C[C@@H]3O[C@H]1C[C@H](N)[C@H](O)[C@H](C)O1 [DOXORUBICIN HYDROCHLORIDE] | pIC50 | 5.92
CC(C)=CCC[C@@H](C)[C@H]1[C@H](O)C[C@@]2(C)[C@@H]3CC[C@H]4C(C)(C)[C@@H](O)CC[C@]4(O)CC3=CC[C@]12C | pIC50 | 5.15
C=C(C[C@@H](C)[C@H]1[C@H](O)C[C@@]2(C)[C@@H]3CC[C@H]4C(C)(C)[C@@H](O)CC[C@]4(O)CC3=CC[C@]12C)C(C)C | pIC50 | 5.06

Note: attention shifts to another entry.
Data point: C=C(C)C(=O)CC[C@@H](C)[C@H]1[C@H](O)C[C@@]2(C)[C@@H]3CC[C@H]4C(C)(C)[C@@H](O)CC[C@]4(O)CC3=CC[C@]12C ; pIC50 = 5.36

Cited source: ChEMBL document CHEMBL5226353
